Sourced from patent US10857105B2

System: modified luciferase
Assay: Luciferase expression in liver, lung, spleen and femur 6 hours after intravenous administration to mice
Format: in vivo
Conditions: lung, 6 hours after intravenous 0.5 mpk, mice
# reported Total Flux, Lung; entries follow

>  <COMPOUND>
CCCCCCCCC(CCCCCCCC)OC(=O)CCCCCCCN(CCO)CCCCCCCC(=O)OCC1CC1CCCCCC (stereo not shown) [Compound 28]

>  <Total Flux, Lung>
2.17E+08

$$$$
>  <COMPOUND>
CCCCCCCCC(CCCCCC)C(=O)OCCCCCCCCCN(CCO)CCCCCCCCCOC(=O)C(CCCCCC)CCCCCCCC (stereo not shown) [Compound 133]

>  <Total Flux, Lung>
3.18E+06

$$$$
>  <COMPOUND>
CCCCCCCCCN(CCO)CCCCCCCC(=O)OC(CCCCCCCC)CCCCCCCC [Compound 3]

>  <Total Flux, Lung>
4.76E+07

$$$$
>  <COMPOUND>
CCCCCCCCC(CCCCCCCC)OC(=O)CCCCCCCN(CCO)CCCC(=O)OC(CCCCC)CCCCCCCC (stereo not shown) [Compound 71]

>  <Total Flux, Lung>
4.86E+06

$$$$
>  <COMPOUND>
CCCCCCCCCOC(=O)CCCN(CCO)CCCCCCCC(=O)OC(CCCCCCCC)CCCCCCCC [Compound 26]

>  <Total Flux, Lung>
1.18E+07

$$$$
>  <COMPOUND>
CCCCCCCCCOC(=O)CCCCCCCN(CCCCCCCC(=O)OC(CCCCCCCC)CCCCCCCC)CCN1CCN(C)CC1 [Compound 101]

>  <Total Flux, Lung>
1.77E+05

$$$$
>  <COMPOUND>
CCCCCCCCC(CCC)OC(=O)CCCCCCCN(CCO)CCCCCCCC(=O)OC(CCCCCCCC)CCCCCCCC (stereo not shown) [Compound 50]

>  <Total Flux, Lung>
2.81E+07

$$$$

====

Assay: Particle size and polydispersity index of nanoparticle compositions (Zetasizer Nano ZS)
Type: physicochemical
Details: Table 1A; lipid:DSPC:cholesterol:PEG-DMG 50:10:38.5:1.5 mol %

>  <MOLECULE>
CCCCCCCCCC(C)(O)CCCCCCCCN(CCO)CCCCCCCC(=O)OC(CCCCCCCC)CCCCCCCC (stereo not shown)

>  <Size (nm)>
100.5

$$$$
>  <MOLECULE>
CCCCCCCCCOC(=O)CCCCCCCN(CCCCCCCC(=O)OC(CCCCCCCC)CCCCCCCC)C[C@H](C)O

>  <Size (nm)>
116.7

$$$$
>  <MOLECULE>
CCCCCCCCCOC(=O)CCCCCCCN(CCCCCCCC(=O)OC(CCCCCCCC)CCCCCCCC)CC(O)CC (stereo not shown)

>  <Size (nm)>
79.4

$$$$
>  <MOLECULE>
CCCCCCCCCOC(=O)CCCCCCCN(CCCCCCCC(=O)OC(CCCCCCCC)CCCCCCCC)C[C@@H](C)O

>  <Size (nm)>
129.6

$$$$

====

Experiment: Particle size and polydispersity index of nanoparticle compositions (Zetasizer Nano ZS)
Assay type: physicochemical
Conditions: Table 1A; lipid:DSPC:cholesterol:PEG-DMG 50:10:38.5:1.5 mol %

>  <COMPOUND>
CCCCCCCCCOC(=O)CCCCCCCN(CCCCCCCC(=O)OC(CCCCCCCC)CCCCCCCC)CCCN/C(=C/[N+](=O)[O-])NC

>  <Size [nm]>
96.0

$$$$
>  <COMPOUND>
CCCCCCCC/C=C\CCCCCCCCN(CCO)CCCCCCCC(=O)OC(CCCCCCCC)CCCCCCCC

>  <Size [nm]>
73.9

$$$$
>  <COMPOUND>
CCCCCCCCC(CCCCCCCC)OC(=O)CCCCCCCN(CCO)CCCCCC(=O)OC(CCCCCCCC)C1CC1 (centres unmarked)

>  <Size [nm]>
104.1

$$$$
>  <COMPOUND>
CCCCCCCCC(CCCCCCCC)OC(=O)CCCCCCCN(CCO)CCCC(=O)OCC1CC1CCCCCC (centres unmarked)

>  <Size [nm]>
91.6

$$$$
>  <COMPOUND>
CCCCCCCCCOC(=O)CCCCCCCN(CCO)CCN(CCO)CCCCCCCC(=O)OC(CCCCCCCC)CCCCCCCC

>  <Size [nm]>
75.9

$$$$
>  <COMPOUND>
CCCCCCCCCOC(=O)CCCN(C)CCCCCCCC(=O)OC(CCCCCCCC)CCCCCCCC

>  <Size [nm]>
77.4

$$$$
>  <COMPOUND>
CCCCCCCCCOC(=O)CCCCCCCN(CCCCCCCC(=O)OC(CCCCCCCC)CCCCCCCC)CCCN/C(=N/C#N)N(C)C

>  <Size [nm]>
102.3

$$$$
>  <COMPOUND>
CCCCCCCOC(=O)CCCCCCCCCN(CCO)CCCCCCCCCC(=O)OC(CCCCCC)CCCCCC

>  <Size [nm]>
92.2

$$$$
>  <COMPOUND>
CCCCCCCCCC(=O)OCCCCCCCN(CCO)CCCCCCCC(=O)OC(CCCCCCCC)CCCCCCCC

>  <Size [nm]>
120.5

$$$$
>  <COMPOUND>
CCCCCCCCC(CCCCCCCC)OC(=O)CCCCCCCN(CCO)CCCCCC(=O)OC1CCC(CCCCC)CC1 (centres unmarked)

>  <Size [nm]>
76.8

$$$$
>  <COMPOUND>
CCCCCCCCCOC(=O)CCCCCCCN(CCCCCCCC(=O)OC(CCCCCCCC)CCCCCCCC)CCCNc1c(N(C)C)c(=O)c1=O

>  <Size [nm]>
87.4

$$$$
>  <COMPOUND>
CCCCCCCCC(CCCCCCCC)OC(=O)CCCCCCCN(CCO)CCCCCCCC(=O)O[C@H](C)CCCCCCCC

>  <Size [nm]>
77.3

$$$$
>  <COMPOUND>
CCCCCCCCC(C)OC(=O)CCCCCCCN(CCO)CCCCCCCC(=O)N(CCCCCCCC)CCCCCCCC (centres unmarked)

>  <Size [nm]>
107.1

$$$$
>  <COMPOUND>
CCCCCCCCC(CCCCCCCC)OC(=O)CCCCCCCN(CCO)CCCC(=O)OCCCCCCC

>  <Size [nm]>
112.9

$$$$
>  <COMPOUND>
CCCCCCCCCOC(=O)CCCCCCCN(CCO)CCCCCCCC(=O)OC(CCC)CCCCCCCC (centres unmarked)

>  <Size [nm]>
133.8

$$$$
>  <COMPOUND>
CCCCCCCCCOC(=O)CCCCCCCN(CCO)CCCCCCCC(=O)OC1CCCCCCCCCCCCCC1

>  <Size [nm]>
99.2

$$$$
>  <COMPOUND>
CCCCCCCCCOC(=O)CCCCCCCN(CCCCCCCC(=O)OC(CCCCCCCC)CCCCCCCC)CCCC(=O)NC

>  <Size [nm]>
55.8

$$$$
>  <COMPOUND>
CCCCCCCCCOC(=O)CCCCCCCN(CCCCCCCC(=O)OC(CCCCCCCC)CCCCCCCC)CCOC

>  <Size [nm]>
111.1

$$$$
>  <COMPOUND>
CCCCCCCCCOC(=O)CCCCCCCN(CCCCCCCC(=O)OC(CCCCCCCC)CCCCCCCC)CCCN/C(=N/S(C)(=O)=O)N(C)C

>  <Size [nm]>
66.9

$$$$
>  <COMPOUND>
CCCCCCCCCOC(=O)CCCCCCCN(CCCCCCCC(=O)OC(CCCCCCCC)CCCCCCCC)CCCNC(=O)OC

>  <Size [nm]>
78.7

$$$$
>  <COMPOUND>
CCCCCCCCCCCOC(=O)CCCCCN(CCO)CCCCCC(=O)OC(CCCCCCCCCC)CCCCCCCCCC

>  <Size [nm]>
69.6

$$$$
>  <COMPOUND>
CCCCCCCCC(CC)OC(=O)CCCCCN(CCO)CCCCCCCC(=O)OC(CCCCCCCC)CCCCCCCC (centres unmarked)

>  <Size [nm]>
92.1

$$$$
>  <COMPOUND>
CCCCCCCCCOC(=O)CCCCCCCN(CCCCCCCC(=O)OC(CCCCCCCC)CCCCCCCC)CCCN1C(=O)CNC1=O

>  <Size [nm]>
84.4

$$$$
>  <COMPOUND>
CCCCCCCCCC(=O)OC(C)CCCCCCN(CCO)CCCCCCCOC(=O)C(CCCCCCCC)CCCCCCCC (centres unmarked)

>  <Size [nm]>
84.6

$$$$
>  <COMPOUND>
CCCC/C=C\CCC(CC/C=C\CCCC)OC(=O)CCCCCCCN(CCO)CCCCCCCC(=O)OCCCCCCCCC

>  <Size [nm]>
95.1

$$$$
>  <COMPOUND>
CCCCCCCCC(CCCCCCCC)OC(=O)CCCCCCCN(CCO)CCCCCCCC

>  <Size [nm]>
120.5

$$$$
>  <COMPOUND>
CCCCCCCCCOC(=O)CCCCCCCN(CCCCCCCC(=O)OC(CCCCCCCC)CCCCCCCC)CCCNC(=O)COC

>  <Size [nm]>
104.2

$$$$
>  <COMPOUND>
CCCCCCCCC(C)OC(=O)CCCCCCCN(CCO)CCCCCCCC(=O)OC(CCCCCCCC)CCCCCCCC (centres unmarked)

>  <Size [nm]>
82.3

$$$$
>  <COMPOUND>
CCCCCCCCCOC(=O)CCCCCCCN(CCCCCCCC(=O)OC(CCCCCCCC)CCCCCCCC)CCCNC(C)=O

>  <Size [nm]>
119

$$$$
